Every entry's value here was drawn from the kinase profiling compilation of Christmann-Franck et al. (2016).

I'd be grateful if you could share measured inhibition for these entries.
- SYSTEM: PRKCE (human) (UniProt Q02156)
- Sequence (Q02156 whole entry, looked up): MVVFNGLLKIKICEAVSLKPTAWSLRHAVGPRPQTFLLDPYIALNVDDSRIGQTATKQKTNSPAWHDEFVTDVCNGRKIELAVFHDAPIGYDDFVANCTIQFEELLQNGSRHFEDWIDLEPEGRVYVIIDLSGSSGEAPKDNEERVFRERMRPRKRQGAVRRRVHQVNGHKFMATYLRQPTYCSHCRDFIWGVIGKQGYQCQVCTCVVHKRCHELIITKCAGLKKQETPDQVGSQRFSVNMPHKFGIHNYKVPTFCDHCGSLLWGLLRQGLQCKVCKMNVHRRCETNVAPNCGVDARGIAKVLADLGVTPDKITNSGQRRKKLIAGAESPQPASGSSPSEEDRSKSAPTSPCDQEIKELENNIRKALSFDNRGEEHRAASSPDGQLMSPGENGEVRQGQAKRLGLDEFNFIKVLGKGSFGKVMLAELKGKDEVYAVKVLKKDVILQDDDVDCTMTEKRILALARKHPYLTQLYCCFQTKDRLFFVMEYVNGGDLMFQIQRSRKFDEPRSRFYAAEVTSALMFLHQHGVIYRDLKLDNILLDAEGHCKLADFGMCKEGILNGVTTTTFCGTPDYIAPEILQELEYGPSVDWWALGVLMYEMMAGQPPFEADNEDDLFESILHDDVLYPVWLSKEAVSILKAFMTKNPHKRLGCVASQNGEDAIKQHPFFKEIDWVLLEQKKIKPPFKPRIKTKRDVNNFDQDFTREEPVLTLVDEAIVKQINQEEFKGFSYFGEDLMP
- PROTOCOL TEXT: Caliper, Mobility shift assay off-chip
- DETAILS: compound 0.1 µM
Answers are plain numbers, in %.

>  <COMPOUND>
Cn1cc(-c2cnc3ccc4ccc(CS(=O)(=O)NCC5CCCCN5)cc4c(=O)c3c2)cn1 (configuration not stated)

>  <ASSAY ENDPOINT>
inhibition

>  <MEASUREMENT UNIT>
%

>  <RECORDED MEASUREMENT>
-9.1

$$$$
>  <COMPOUND>
Cn1cc(-c2cnc3ccc4ccc(CS(N)(=O)=O)cc4c(=O)c3c2)cn1

>  <ASSAY ENDPOINT>
inhibition

>  <MEASUREMENT UNIT>
%

>  <RECORDED MEASUREMENT>
-4.6

$$$$
>  <COMPOUND>
O=C(CCc1ccc2ccc3ncc(C4CCNCC4)cc3c(=O)c2c1)NCc1ccccn1

>  <ASSAY ENDPOINT>
inhibition

>  <MEASUREMENT UNIT>
%

>  <RECORDED MEASUREMENT>
9.3

$$$$
>  <COMPOUND>
Cn1cc(-c2cnc3ccc4ccc(CS(=O)(=O)CCc5ccccn5)cc4c(=O)c3c2)cn1

>  <ASSAY ENDPOINT>
inhibition

>  <MEASUREMENT UNIT>
%

>  <RECORDED MEASUREMENT>
6.5

$$$$
>  <COMPOUND>
O=c1c2cc(CS(=O)(=O)NCc3ccccn3)ccc2ccc2ncc(C3CCNCC3)cc12

>  <ASSAY ENDPOINT>
inhibition

>  <MEASUREMENT UNIT>
%

>  <RECORDED MEASUREMENT>
-2

$$$$
>  <COMPOUND>
Cn1cc(-c2cnc3ccc4ccc(CS(=O)(=O)NC5CCCCC5)cc4c(=O)c3c2)cn1

>  <ASSAY ENDPOINT>
inhibition

>  <MEASUREMENT UNIT>
%

>  <RECORDED MEASUREMENT>
3.8

$$$$

Switching to the query record.
For CN(c1ccc2ccc3ncc(-c4cnn(C)c4)cc3c(=O)c2c1)S(=O)(=O)NCc1ccccn1 , write its inhibition.
8.8
